Data origin, for the record: ChEMBL document CHEMBL3297731

targetSystem: Epidermal growth factor receptor (Homo sapiens)
Sequence (P00533 whole entry): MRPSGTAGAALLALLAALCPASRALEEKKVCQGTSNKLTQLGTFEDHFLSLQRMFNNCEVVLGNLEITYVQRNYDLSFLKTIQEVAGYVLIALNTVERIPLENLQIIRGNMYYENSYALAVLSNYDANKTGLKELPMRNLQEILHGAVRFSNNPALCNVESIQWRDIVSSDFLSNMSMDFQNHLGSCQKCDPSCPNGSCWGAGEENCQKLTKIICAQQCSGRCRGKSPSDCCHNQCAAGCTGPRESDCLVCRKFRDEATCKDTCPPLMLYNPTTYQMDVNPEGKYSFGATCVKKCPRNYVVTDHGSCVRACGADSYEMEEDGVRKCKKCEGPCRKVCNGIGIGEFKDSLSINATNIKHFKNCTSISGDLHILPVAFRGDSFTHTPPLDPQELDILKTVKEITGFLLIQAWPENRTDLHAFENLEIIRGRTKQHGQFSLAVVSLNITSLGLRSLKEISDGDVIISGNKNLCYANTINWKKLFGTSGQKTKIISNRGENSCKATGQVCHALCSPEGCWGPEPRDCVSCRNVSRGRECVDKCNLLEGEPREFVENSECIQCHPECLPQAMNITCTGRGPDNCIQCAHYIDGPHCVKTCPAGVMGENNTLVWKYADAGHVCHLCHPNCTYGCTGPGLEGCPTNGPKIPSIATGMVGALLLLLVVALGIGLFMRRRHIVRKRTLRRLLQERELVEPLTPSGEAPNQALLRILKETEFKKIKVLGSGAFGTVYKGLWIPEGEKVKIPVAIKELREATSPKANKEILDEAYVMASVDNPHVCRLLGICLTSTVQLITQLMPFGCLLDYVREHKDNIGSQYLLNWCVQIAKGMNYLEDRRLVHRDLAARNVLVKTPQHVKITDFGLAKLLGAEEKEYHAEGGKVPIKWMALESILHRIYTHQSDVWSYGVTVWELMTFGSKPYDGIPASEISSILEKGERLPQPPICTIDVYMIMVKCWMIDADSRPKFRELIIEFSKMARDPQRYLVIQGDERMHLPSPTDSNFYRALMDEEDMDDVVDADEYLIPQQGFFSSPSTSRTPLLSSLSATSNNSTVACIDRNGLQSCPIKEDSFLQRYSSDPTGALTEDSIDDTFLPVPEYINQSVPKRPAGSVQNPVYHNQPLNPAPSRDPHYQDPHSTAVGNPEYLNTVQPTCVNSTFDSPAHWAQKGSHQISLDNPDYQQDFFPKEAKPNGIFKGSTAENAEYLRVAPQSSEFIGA
pIC50: −log10 of the molar value.

- structureSmilesString: "Cc1nc(Nc2ccc(C(F)(F)F)cc2)c2cc(C)oc2n1"
  pIC50: 6.91
- structureSmilesString: "COc1ccc(N(c2nc(C)nc3oc(C)cc23)C(C)C)cc1"
  pIC50: 7.07
- structureSmilesString: "Cc1nc(Nc2ccccc2)c2cc(C)oc2n1"
  pIC50: 6.95
- structureSmilesString: "C#Cc1cccc(Nc2nc(C)nc3oc(C)cc23)c1"
  pIC50: 7.52
- structureSmilesString: "Cc1nc(Nc2cccc3ccccc23)c2cc(C)oc2n1"
  pIC50: 6.84
- structureSmilesString: "COc1ccc(Nc2nc(C)nc3oc(C)cc23)cc1"
  pIC50: 7.37
- structureSmilesString: "CCN(c1ccc(OC)cc1)c1nc(C)nc2oc(C)cc12"
  pIC50: 7.15
- structureSmilesString: "Cc1nc(Nc2ccc(F)c(Cl)c2)c2cc(C)oc2n1"
  pIC50: 7.52
- structureSmilesString: "CCCCN(c1ccc(OC)cc1)c1nc(C)nc2oc(C)cc12"
  pIC50: 6.47
- structureSmilesString: "Cc1nc(Nc2cccc3[nH]ccc23)c2cc(C)oc2n1"
  pIC50: 7.04
- structureSmilesString: "Cc1nc(Nc2ccc(Cl)cc2)c2cc(C)oc2n1"
  pIC50: 6.99
